Tested on: F21T (DNA, G4) GGGTTAGGGTTAGGGTTAGGG
Method Notes: FRET melting (renaturing curve)
Measurement Context: 10 mM K+, 90 mM Li+; 10 mM Li-cacodylate pH 7.3; 0.2 μM DNA; 10 μM compound
Kindly supply the reported ΔTm values for the records listed here.

Please report ΔTm with F21T (DNA, G4) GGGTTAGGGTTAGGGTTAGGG for item NC(=S)N/N=C/c1ccc2ccc3ccc(/C=N/NC(N)=S)nc3c2n1 [3] .
~ 10 °C

Please report ΔTm with F21T (DNA, G4) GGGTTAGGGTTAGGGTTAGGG for item NC(=S)N/N=C/c1ccc2ccc3ccc(/C=N/NC(N)=S)nc3c2n1 [1] .
~ 12 °C

Please report ΔTm with F21T (DNA, G4) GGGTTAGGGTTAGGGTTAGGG for item NC(=S)N/N=C/c1ccc2ccc3ccc(/C=N/NC(N)=S)nc3c2n1 [2] .
~ 15 °C

Please report ΔTm with F21T (DNA, G4) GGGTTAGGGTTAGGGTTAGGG for item C(=N\Nc1nc(-c2ccccc2)cs1)/c1ccc2ccc3ccc(/C=N/Nc4nc(-c5ccccc5)cs4)nc3c2n1 [compound 4] .
~ 3 °C
